Value source: PubChem BioAssay AID2060486

Overview of recorded viability, T/C for various compounds
# Test system: IGROV1 complex spheroids (HUVEC, MSC), viability % test/control
# assay summary: Anticancer human tumor IGROV1 cell line growth inhibition [GQUAD];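 also: spheroids exposed to compounds for 7 days before readout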;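 as to viability, T/C: 100% = DMSO vehicle control viability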
# experimental conditions: second compound 0.316 µM; first compound 3.16 µM; stronger effect = lower value

// worked examples, viability, T/C included
compound: O=c1[nH]cc(F)c(=O)[nH]1 + CN(C)c1ccc(Nc2c3ccc(NC(=O)CCN4CCCC4)cc3nc3cc(NC(=O)CCN4CCCC4)ccc23)cc1
viability, T/C: 83%

compound: C=CC(=O)N1CCN(c2nc(=O)n(-c3c(C)ccnc3C(C)C)c3nc(-c4c(O)cccc4F)c(F)cc23)C(C)C1 (stereo unspecified) + CN(C)c1ccc(Nc2c3ccc(NC(=O)CCN4CCCC4)cc3nc3cc(NC(=O)CCN4CCCC4)ccc23)cc1
viability, T/C: 111%

Please turn your attention to the following entry.
Exam item: Report measured viability, T/C; entry is C=CCn1c(=O)c2cnc(Nc3ccc(N4CCN(C)CC4)cc3)nc2n1-c1cccc(C(C)(C)O)n1 + CN(C)c1ccc(Nc2c3ccc(NC(=O)CCN4CCCC4)cc3nc3cc(NC(=O)CCN4CCCC4)ccc23)cc1
Marked response: 2.63%

---

# System: IGROV1 complex spheroids (HUVEC, MSC), viability % test/control
# assay summary: Anticancer human tumor IGROV1 cell line growth inhibition [GQUAD];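 also: spheroids exposed to compounds for 7 days before readout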;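 as to viability, T/C: 100% = DMSO vehicle control viability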
# experimental conditions: second compound 1 µM; first compound 0.1 µM; stronger effect = lower value
measured parameter: viability, T/C

// worked examples, viability, T/C included
compound: O=C(NO)c1cnc(N2CCN(S(=O)(=O)c3ccc4ccccc4c3)CC2)nc1 + Cc1cnc(CNC(=O)c2c(=O)c3ccc(N4CCCN(C)CC4)nc3n3c2sc2ccccc23)cn1
measured parameter: viability, T/C
measured result: 8.18%
//
compound: COc1ccc([C@@H](O)c2cc(-c3ncnc4cc(N5CCOCC5)ccc34)c(F)cc2Cl)nn1 + CN(C)c1ccc(Nc2c3ccc(NC(=O)CCN4CCCC4)cc3nc3cc(NC(=O)CCN4CCCC4)ccc23)cc1
measured parameter: viability, T/C
measured result: 82.2%
//
compound: CC(=O)O[C@H]1C(=O)[C@@]2(C)[C@H]([C@H](OC(=O)c3ccccc3)[C@]3(O)C[C@H](OC(=O)[C@H](O)[C@@H](NC(=O)c4ccccc4)c4ccccc4)C(C)=C1C3(C)C)[C@]1(OC(C)=O)CO[C@@H]1C[C@@H]2O + Cc1[nH]c2ccc(F)cc2c1-c1nc2c3cccnc3c3ncccc3c2[nH]1
measured parameter: viability, T/C
measured result: 2.5%

Exam item: Report measured viability, T/C; entry is CC(C)n1c(=O)n(C)c2cnc3cc(F)c(-c4ccc(OCCCN5CCCCC5)nc4)cc3c21 + Cc1[nH]c2ccc(F)cc2c1-c1nc2c3cccnc3c3ncccc3c2[nH]1
Marked response: 4.91%

---

# Test system: IGROV1 complex spheroids (HUVEC, MSC), viability % test/control
# assay summary: Anticancer human tumor IGROV1 cell line growth inhibition [GQUAD];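 also: spheroids exposed to compounds for 7 days before readout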;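 as to viability, T/C: 100% = DMSO vehicle control viability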
# experimental conditions: second compound 10 µM; first compound 0.316 µM; stronger effect = lower value
Overview of recorded viability, T/C for various compounds

compound: COc1ccc([C@@H](O)c2cc(-c3ncnc4cc(N5CCOCC5)ccc34)c(F)cc2Cl)nn1 + Cc1cnc(CNC(=O)c2c(=O)c3ccc(N4CCCN(C)CC4)nc3n3c2sc2ccccc23)cn1
system: IGROV1 complex spheroids (HUVEC, MSC), viability % test/control
viability, T/C: 9.26%
//
compound: C=CC(=O)N1CCN(c2nc(=O)n(-c3c(C)ccnc3C(C)C)c3nc(-c4c(O)cccc4F)c(F)cc23)C(C)C1 (stereo unspecified) + CN(C)c1ccc(Nc2c3ccc(NC(=O)CCN4CCCC4)cc3nc3cc(NC(=O)CCN4CCCC4)ccc23)cc1
system: IGROV1 complex spheroids (HUVEC, MSC), viability % test/control
viability, T/C: 67.2%
//
compound: Nc1ccn(C2OC(CO)C(O)C2(F)F)c(=O)n1 (stereo unspecified) + Cc1cnc(CNC(=O)c2c(=O)c3ccc(N4CCCN(C)CC4)nc3n3c2sc2ccccc23)cn1
system: IGROV1 complex spheroids (HUVEC, MSC), viability % test/control
viability, T/C: 5.25%

Please turn your attention to the following entry.
Exam item: Report measured viability, T/C; entry is CCCS(=O)(=O)Nc1ccc(F)c(C(=O)c2c[nH]c3ncc(-c4ccc(Cl)cc4)cc23)c1F + Cc1[nH]c2ccc(F)cc2c1-c1nc2c3cccnc3c3ncccc3c2[nH]1
Marked response: 4.63%

---

# Test system: IGROV1 complex spheroids (HUVEC, MSC), viability % test/control
# assay summary: Anticancer human tumor IGROV1 cell line growth inhibition [GQUAD]; active means viability on the fitted dose curve at most 10% of control; inactive means the rest;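 also: spheroids exposed to compounds for 7 days before readout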
# experimental conditions: second compound 10 µM; first compound 0.000999 µM
# From the text: DNA G-quadruplex Stabilizer Agents in Combinations in Complex Spheroids A high-throughput screen of multi-cell type tumor spheroids was designed to identify active combinations of DNA G-quadruplex stabilizer agents and targeted small molecules. […] Compounds. […] If the clinical Cmax for an agent had not been determined, the highest concentration tested was 10 microM. […]
Permitted responses: label 1 for active, label 0 for inactive

compound: Cn1ncnc1[C@H]1c2n[nH]c(=O)c3cc(F)cc(c23)N[C@@H]1c1ccc(F)cc1 + Cc1cnc(CNC(=O)c2c(=O)c3ccc(N4CCCN(C)CC4)nc3n3c2sc2ccccc23)cn1
label value: label 1
//
compound: Cc1[nH]c2ccccc2c1CCNCc1ccc(/C=C/C(=O)NO)cc1 + Cc1[nH]c2ccc(F)cc2c1-c1nc2c3cccnc3c3ncccc3c2[nH]1
label value: label 1
//
compound: Cc1[nH]c2ccccc2c1CCNCc1ccc(/C=C/C(=O)NO)cc1 + CN(C)c1ccc(Nc2c3ccc(NC(=O)CCN4CCCC4)cc3nc3cc(NC(=O)CCN4CCCC4)ccc23)cc1
label value: label 0

From here, focus on the item given below.
Exam item: Hi, do you know how CCc1c2c(nc3ccc(O)cc13)-c1cc3c(c(=O)n1C2)COC(=O)[C@]3(O)CC + Cc1cnc(CNC(=O)c2c(=O)c3ccc(N4CCCN(C)CC4)nc3n3c2sc2ccccc23)cn1 came out in this test?
Marked response: label 1

---

# System: IGROV1 complex spheroids (HUVEC, MSC), viability % test/control
# assay summary: Anticancer human tumor IGROV1 cell line growth inhibition [GQUAD];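 also: spheroids exposed to compounds for 7 days before readout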
# experimental conditions: curve of first compound; second compound 1 µM
measured parameter: IC50

// worked examples, IC50 included
compound: CC(C)n1c(=O)n(C)c2cnc3cc(F)c(-c4ccc(OCCCN5CCCCC5)nc4)cc3c21 + CN(C)c1ccc(Nc2c3ccc(NC(=O)CCN4CCCC4)cc3nc3cc(NC(=O)CCN4CCCC4)ccc23)cc1
system: IGROV1 complex spheroids (HUVEC, MSC), viability % test/control
IC50: 1500 nM

compound: Nc1ccn(C2OC(CO)C(O)C2(F)F)c(=O)n1 (stereo unspecified) + CN(C)c1ccc(Nc2c3ccc(NC(=O)CCN4CCCC4)cc3nc3cc(NC(=O)CCN4CCCC4)ccc23)cc1
system: IGROV1 complex spheroids (HUVEC, MSC), viability % test/control
IC50: < 31.6 nM

compound: C#Cc1c(F)ccc2cc(O)cc(-c3ncc4c(N5CC6CCC(C5)N6)nc(OCC56CCCN5CC(F)C6)nc4c3F)c12 (stereo unspecified) + Cc1[nH]c2ccc(F)cc2c1-c1nc2c3cccnc3c3ncccc3c2[nH]1
system: IGROV1 complex spheroids (HUVEC, MSC), viability % test/control
IC50: < 31.6 nM

compound: COc1cc(C2c3cc4c(cc3C(OC3OC5COC(C)OC5C(O)C3O)C3COC(=O)C23)OCO4)cc(OC)c1O (stereo unspecified) + Cc1cnc(CNC(=O)c2c(=O)c3ccc(N4CCCN(C)CC4)nc3n3c2sc2ccccc23)cn1
system: IGROV1 complex spheroids (HUVEC, MSC), viability % test/control
IC50: < 31.6 nM

compound: COc1ccc([C@@H](O)c2cc(-c3ncnc4cc(N5CCOCC5)ccc34)c(F)cc2Cl)nn1 + Cc1[nH]c2ccc(F)cc2c1-c1nc2c3cccnc3c3ncccc3c2[nH]1
system: IGROV1 complex spheroids (HUVEC, MSC), viability % test/control
IC50: < 31.6 nM

compound: O=C(NO)c1cnc(N2CCN(S(=O)(=O)c3ccc4ccccc4c3)CC2)nc1 + CN(C)c1ccc(Nc2c3ccc(NC(=O)CCN4CCCC4)cc3nc3cc(NC(=O)CCN4CCCC4)ccc23)cc1
system: IGROV1 complex spheroids (HUVEC, MSC), viability % test/control
IC50: 41.4 nM

Exam item: Provide IC50, recorded with IGROV1 complex spheroids (HUVEC, MSC), viability % test/control, of CCc1c2c(nc3ccc(O)cc13)-c1cc3c(c(=O)n1C2)COC(=O)[C@]3(O)CC + Cc1cnc(CNC(=O)c2c(=O)c3ccc(N4CCCN(C)CC4)nc3n3c2sc2ccccc23)cn1
Marked response: < 0.999 nM

Exam item: Provide IC50, recorded with IGROV1 complex spheroids (HUVEC, MSC), viability % test/control, of COc1ncnc(C2CC2)c1-c1ncc2cnn(Cc3ccc(-c4nc(C(F)(F)F)cn4C(C)C)cc3)c2n1 + CN(C)c1ccc(Nc2c3ccc(NC(=O)CCN4CCCC4)cc3nc3cc(NC(=O)CCN4CCCC4)ccc23)cc1
Marked response: > 10000 nM

Exam item: Provide IC50, recorded with IGROV1 complex spheroids (HUVEC, MSC), viability % test/control, of CC1COCCN1c1cc(C2(O)CC3CCC(C2)O3)c2cnn(-c3ccn[nH]3)c2n1 (stereo unspecified) + CN(C)c1ccc(Nc2c3ccc(NC(=O)CCN4CCCC4)cc3nc3cc(NC(=O)CCN4CCCC4)ccc23)cc1
Marked response: < 31.6 nM

Exam item: Provide IC50, recorded with IGROV1 complex spheroids (HUVEC, MSC), viability % test/control, of CC1COCCN1c1cc(C2(S(C)(=N)=O)CC2)nc(-c2ccnc3[nH]ccc23)n1 (stereo unspecified) + CN(C)c1ccc(Nc2c3ccc(NC(=O)CCN4CCCC4)cc3nc3cc(NC(=O)CCN4CCCC4)ccc23)cc1
Marked response: 1020 nM

Exam item: Provide IC50, recorded with IGROV1 complex spheroids (HUVEC, MSC), viability % test/control, of CC[C@@]1(O)C(=O)OCc2c1cc1n(c2=O)Cc2cc3c(CN(C)C)c(O)ccc3nc2-1 + CN(C)c1ccc(Nc2c3ccc(NC(=O)CCN4CCCC4)cc3nc3cc(NC(=O)CCN4CCCC4)ccc23)cc1
Marked response: 22.8 nM

Exam item: Provide IC50, recorded with IGROV1 complex spheroids (HUVEC, MSC), viability % test/control, of CC[C@@]1(O)C(=O)OCc2c1cc1n(c2=O)Cc2cc3c(CN(C)C)c(O)ccc3nc2-1 + Cc1[nH]c2ccc(F)cc2c1-c1nc2c3cccnc3c3ncccc3c2[nH]1
Marked response: < 0.999 nM

Exam item: Provide IC50, recorded with IGROV1 complex spheroids (HUVEC, MSC), viability % test/control, of O=c1[nH]cc(F)c(=O)[nH]1 + CN(C)c1ccc(Nc2c3ccc(NC(=O)CCN4CCCC4)cc3nc3cc(NC(=O)CCN4CCCC4)ccc23)cc1
Marked response: 5900 nM

Exam item: Provide IC50, recorded with IGROV1 complex spheroids (HUVEC, MSC), viability % test/control, of COc1cccc2c1C(=O)c1c(O)c3c(c(O)c1C2=O)CC(O)(C(=O)CO)CC3OC1CC(N)C(O)C(C)O1 (stereo unspecified) + Cc1[nH]c2ccc(F)cc2c1-c1nc2c3cccnc3c3ncccc3c2[nH]1
Marked response: < 31.6 nM

Exam item: Provide IC50, recorded with IGROV1 complex spheroids (HUVEC, MSC), viability % test/control, of CC1COCCN1c1cc(-c2ccnn2C)c2ccnc(-c3ccn[nH]3)c2n1 (stereo unspecified) + Cc1[nH]c2ccc(F)cc2c1-c1nc2c3cccnc3c3ncccc3c2[nH]1
Marked response: < 31.6 nM

Exam item: Provide IC50, recorded with IGROV1 complex spheroids (HUVEC, MSC), viability % test/control, of CC(C)(O)C1CCC(Nc2ccc3ncc(-c4cccc(C(F)(F)F)c4)n3n2)CC1 (stereo unspecified) + CN(C)c1ccc(Nc2c3ccc(NC(=O)CCN4CCCC4)cc3nc3cc(NC(=O)CCN4CCCC4)ccc23)cc1
Marked response: 1750 nM
